# TEST DETAILS: Induction of catalepsy in rats
# Design: species or system male Wistar rats
# STATED CONDITIONS: rat, in vivo, sc; rats, s.c. 30 min before; dose inducing catalepsy for an average of 15 seconds (50% of maximum); read-out: Induction of the catalepsy DE50
ATTRIBUTE MEASURED: ED50 at 0.5 h

| COMPOUND | RESULT |
| --- | --- |
| CN1CCN(C2=Nc3cc(Cl)ccc3Nc3ccccc32)CC1 [Clozapine, clozapine] | > 40 mg/kg |

----------
List of Ki values.
# SYSTEM: 5-HT1A (Rattus norvegicus, UniProt P19327)
# Sequence (P19327 whole entry): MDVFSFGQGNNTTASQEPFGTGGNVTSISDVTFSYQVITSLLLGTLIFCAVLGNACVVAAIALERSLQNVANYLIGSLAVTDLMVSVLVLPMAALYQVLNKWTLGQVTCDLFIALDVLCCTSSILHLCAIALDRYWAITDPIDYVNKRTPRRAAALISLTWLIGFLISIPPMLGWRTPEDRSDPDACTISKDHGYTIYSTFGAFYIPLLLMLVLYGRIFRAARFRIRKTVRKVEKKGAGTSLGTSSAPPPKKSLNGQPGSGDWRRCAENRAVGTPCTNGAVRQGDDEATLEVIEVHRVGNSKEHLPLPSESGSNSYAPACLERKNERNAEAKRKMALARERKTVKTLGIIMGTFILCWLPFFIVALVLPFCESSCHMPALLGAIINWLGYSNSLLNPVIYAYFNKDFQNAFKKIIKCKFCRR
# TEST DETAILS: biochemical
# STATED CONDITIONS: binding; read-out: Receptor Profile (pKi) 5-HT1A (converted)
Counter-ions that a name gives are not always drawn.

| COMPOUND | Ki, nM |
| --- | --- |
| O=C(CC1CCN(CCOc2cccc3c2OCCO3)C1)c1ccc(F)cc1 (single isomer, unassigned) [Example 6] | 3.63 |
| Cl.Fc1ccc2c(CC3CCN(CCOc4cccc5c4OCCO5)C3)n[nH]c2c1 (centres unmarked) [Example 7, hydrochloride] | 1.7 |
| O=C(CC1CCN(CCOc2cccc3c2OCCO3)C1)c1ccc(F)cc1 (single isomer, unassigned) [Example 5] | 4.79 |
| O=C(CC1CCN(CCOc2cccc3c2OCCO3)C1)c1ccc(F)cc1 (centres unmarked) [Example 2, hydrochloride] | 4.9 |
| Cl.Fc1ccc2c(CC3CCN(CCOc4cccc5c4OCCO5)C3)noc2c1 (centres unmarked) [Example 8, hydrochloride] | 3.89 |

----------
# SYSTEM: 5-HT2A (Rattus norvegicus)
# Sequence (P14842 whole entry): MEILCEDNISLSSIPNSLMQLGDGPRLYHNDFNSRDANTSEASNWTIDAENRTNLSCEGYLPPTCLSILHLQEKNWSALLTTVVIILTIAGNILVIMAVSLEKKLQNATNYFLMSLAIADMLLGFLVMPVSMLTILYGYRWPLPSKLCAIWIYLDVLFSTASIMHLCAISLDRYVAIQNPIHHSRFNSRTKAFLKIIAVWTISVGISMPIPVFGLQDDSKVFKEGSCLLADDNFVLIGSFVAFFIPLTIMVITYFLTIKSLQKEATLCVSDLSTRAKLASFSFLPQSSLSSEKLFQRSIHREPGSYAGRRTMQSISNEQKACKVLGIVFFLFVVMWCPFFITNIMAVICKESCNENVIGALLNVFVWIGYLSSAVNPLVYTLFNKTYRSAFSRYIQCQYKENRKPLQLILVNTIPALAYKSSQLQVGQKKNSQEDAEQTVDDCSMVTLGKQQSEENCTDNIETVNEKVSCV
One threshold, 4 nM, splits the recorded Ki values: lower ones are met, equal or higher ones are not met.

| COMPOUND | LABEL CLASS |
| --- | --- |
| O=C(CC1CCN(CCOc2cccc3c2OCCO3)C1)c1ccc(F)cc1 (single isomer, unassigned) [Example 5] | met |
| O=C(CC1CCN(CCOc2cccc3c2OCCO3)C1)c1ccc(F)cc1 (single isomer, unassigned) [Example 6] | met |
| Cl.Fc1ccc2c(CC3CCN(CCOc4cccc5c4OCCO5)C3)noc2c1 (centres unmarked) [Example 8, hydrochloride] | not met |
| Cl.Fc1ccc2c(CC3CCN(CCOc4cccc5c4OCCO5)C3)n[nH]c2c1 (centres unmarked) [Example 7, hydrochloride] | not met |

----------
# SYSTEM: 5-HT2C (Sus scrofa)
# Sequence (K7GSR7 1-457): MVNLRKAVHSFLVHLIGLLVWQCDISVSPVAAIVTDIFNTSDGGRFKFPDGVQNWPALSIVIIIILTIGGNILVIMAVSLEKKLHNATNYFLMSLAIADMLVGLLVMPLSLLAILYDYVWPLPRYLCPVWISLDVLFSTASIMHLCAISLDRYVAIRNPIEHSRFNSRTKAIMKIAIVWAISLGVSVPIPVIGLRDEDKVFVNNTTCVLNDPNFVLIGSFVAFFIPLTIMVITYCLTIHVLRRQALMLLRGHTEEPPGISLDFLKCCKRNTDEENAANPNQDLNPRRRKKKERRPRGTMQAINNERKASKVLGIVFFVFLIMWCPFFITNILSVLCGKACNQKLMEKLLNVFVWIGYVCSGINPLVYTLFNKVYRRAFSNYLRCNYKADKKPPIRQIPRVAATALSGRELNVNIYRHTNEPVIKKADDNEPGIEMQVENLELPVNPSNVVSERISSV
Structures can show the parent of a compound that is named as a salt.
ATTRIBUTE MEASURED: Ki (nM)

| COMPOUND | NUMBER |
| --- | --- |
| Cl.Fc1ccc2c(CC3CCN(CCOc4cccc5c4OCCO5)C3)noc2c1 (centres unmarked) [Example 8, hydrochloride] | 95.5 |
| Cl.Fc1ccc2c(CC3CCN(CCOc4cccc5c4OCCO5)C3)n[nH]c2c1 (centres unmarked) [Example 7, hydrochloride] | 93.3 |
| O=C(CC1CCN(CCOc2cccc3c2OCCO3)C1)c1ccc(F)cc1 (single isomer, unassigned) [Example 5] | 9.33 |
| O=C(CC1CCN(CCOc2cccc3c2OCCO3)C1)c1ccc(F)cc1 (centres unmarked) [Example 2, hydrochloride] | 7.94 |
| O=C(CC1CCN(CCOc2cccc3c2OCCO3)C1)c1ccc(F)cc1 (single isomer, unassigned) [Example 6] | 6.61 |

----------
# SYSTEM: D2 (Rattus norvegicus, UniProt P61169)
# Sequence (P61169 whole entry): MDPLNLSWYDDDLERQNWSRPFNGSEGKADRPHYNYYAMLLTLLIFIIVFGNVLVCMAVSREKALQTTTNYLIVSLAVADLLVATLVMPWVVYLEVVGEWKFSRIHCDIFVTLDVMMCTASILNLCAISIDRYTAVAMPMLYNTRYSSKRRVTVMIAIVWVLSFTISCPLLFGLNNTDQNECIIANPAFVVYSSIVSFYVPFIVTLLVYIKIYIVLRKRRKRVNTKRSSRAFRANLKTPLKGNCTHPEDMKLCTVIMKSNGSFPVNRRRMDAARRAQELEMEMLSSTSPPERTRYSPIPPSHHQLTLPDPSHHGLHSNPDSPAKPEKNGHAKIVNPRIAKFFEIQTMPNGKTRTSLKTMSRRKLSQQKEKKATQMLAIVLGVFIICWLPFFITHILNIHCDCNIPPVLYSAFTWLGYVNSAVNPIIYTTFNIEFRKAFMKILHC
# TEST DETAILS: biochemical
# STATED CONDITIONS: binding; read-out: Receptor Profile (pKi) D2 (converted)
Structures can show the parent of a compound that is named as a salt.

| COMPOUND | SYSTEM | Ki |
| --- | --- | --- |
| O=C(CC1CCN(CCOc2cccc3c2OCCO3)C1)c1ccc(F)cc1 (single isomer, unassigned) [Example 5] | D2 (Rattus norvegicus, UniProt P61169) | 46.8 nM |
| O=C(CC1CCN(CCOc2cccc3c2OCCO3)C1)c1ccc(F)cc1 (single isomer, unassigned) [Example 6] | D2 (Rattus norvegicus, UniProt P61169) | 53.7 nM |
| Cl.Fc1ccc2c(CC3CCN(CCOc4cccc5c4OCCO5)C3)noc2c1 (centres unmarked) [Example 8, hydrochloride] | D2 (Rattus norvegicus, UniProt P61169) | 257 nM |
| O=C(CC1CCN(CCOc2cccc3c2OCCO3)C1)c1ccc(F)cc1 (centres unmarked) [Example 2, hydrochloride] | D2 (Rattus norvegicus, UniProt P61169) | 43.7 nM |
| Cl.Fc1ccc2c(CC3CCN(CCOc4cccc5c4OCCO5)C3)n[nH]c2c1 (centres unmarked) [Example 7, hydrochloride] | D2 (Rattus norvegicus, UniProt P61169) | 53.7 nM |
